Values compiled from patent US20240058465A1.

target: T1, human ROR1 Frizzled domain (hROR1-Fz) (human, UniProt Q01973 165-305); assay: SPR Biacore, IgG on anti-Fc, ROR1-Fz analyte
T1 construct: Acro Biosystems, made in HEK293
T1 sequence (Q01973 other isoform, or with tags, fused parts or gaps): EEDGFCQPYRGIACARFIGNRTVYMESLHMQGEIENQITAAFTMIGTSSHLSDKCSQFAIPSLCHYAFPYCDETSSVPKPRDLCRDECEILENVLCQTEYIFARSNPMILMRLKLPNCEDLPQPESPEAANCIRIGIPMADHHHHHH
Binarize Kd at 4 nM; below is condition met, at or above is condition not met.

Use these answered entries as a reference point.
SRP2196-C01 (antibody, V domains shown, His/FLAG-tagged IgG1) VH: EVQLVESGGGLVQPGGSLRLSCAASGFNIIGYYIHWVRQAPGKGLEWVGSITPLSGATSKADSVKGRFTISADTSKNTAYLQMNSLRAEDTAVYYCARDSRRYIRSWDYWGQGTLVTVSS VL: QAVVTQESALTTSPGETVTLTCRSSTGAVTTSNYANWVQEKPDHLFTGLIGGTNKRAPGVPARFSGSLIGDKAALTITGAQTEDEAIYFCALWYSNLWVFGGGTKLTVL :: condition met
SRP2196-A06 (antibody, V domains shown, His/FLAG-tagged IgG1) VH: EVQLVESGGGLVQPGGSLRLSCAASGFNITGYYIHWVRQAPGKGLEWVGQISPNSGSTHQADSVKGRFTISADTSKNTAYLQMNSLRAGDTAVYYCARDSRRYVRGWDYWGQGTLVTVSS VL: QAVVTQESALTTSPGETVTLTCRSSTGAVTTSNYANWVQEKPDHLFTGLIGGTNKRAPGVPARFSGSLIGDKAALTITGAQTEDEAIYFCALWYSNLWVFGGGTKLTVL :: condition met
SRP2196-B11 (antibody, V domains shown, His/FLAG-tagged IgG1) VH: EVQLVESGGGLVQPGGSLRLSCAASGFNITGYYIHWVRQAPGRGLEWVGQISPNSGYTYYADSVKGRFTISADTSKNTAYLQMNSLRAEDTAVYYCARDSRRYIRSWDYWGQGTLVTVSS VL: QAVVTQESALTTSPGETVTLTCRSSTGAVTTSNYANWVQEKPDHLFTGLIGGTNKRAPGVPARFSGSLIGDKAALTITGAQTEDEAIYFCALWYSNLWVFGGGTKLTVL :: condition not met
SRP2196-B06 (antibody, V domains shown, His/FLAG-tagged IgG1) VH: EVQLVESGGGLVQPGGSLRLSCAASGFNITGYYIHWVRQAPGKGLEWVGQISPNSGSTYSADSVKGRFTISADTSKNTAYLQMNSLRAEDTAVYYCARDSRRYVLSWDYWGQGTLVTVSS VL: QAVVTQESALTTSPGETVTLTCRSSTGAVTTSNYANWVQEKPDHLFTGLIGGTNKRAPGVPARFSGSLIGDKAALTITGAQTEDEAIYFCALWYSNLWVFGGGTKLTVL :: condition met

Inquiry: Does the reported Kd of SRP2196-A08 (antibody, V domains shown, His/FLAG-tagged IgG1) VH: EVQLVESGGGLVQPGGSLRLSCAASGFNITGYYIHWVRQAPGKGLEWVGYISPNSGSTYKADSVKGRFTISADTSRNTAYLQMNSLRAEDTAVYYCARDSRRYVRSWDYWGQGTLVTVSS VL: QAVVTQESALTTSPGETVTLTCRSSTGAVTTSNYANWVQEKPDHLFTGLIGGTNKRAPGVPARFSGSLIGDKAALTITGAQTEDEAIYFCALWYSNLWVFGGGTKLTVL stay below 4 nM?
Reply text: condition not met
